B1: SEC22B (parent)
chain: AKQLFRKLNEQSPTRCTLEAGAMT

# Variants of: B1
# procedure-summary: protein stability index of a GFP-peptide fusion (GPS, HEK-293T) (PSI 1-6); higher = more stable;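 also: lentivirally expressed fusions sorted by FACS into six bins by GFP to DsRed ratio, PSI derived from sequencing read proportions per bin multiplied by bin number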
# cond: c terminus: a fixed tail appended
Below: a set of entries, each annotated with reported protein stability index.
Number only, please.

L8A; 2.91
S12F; 2.05
N9E; 3.56
P13D; 3.06
L18M; 2.16

Lookup: State the recorded protein stability index for this entry: A22W
Found: 3.6

Lookup: // query: L18T
Found: 2.84

Lookup: // query: L18H
Found: 2.64

Lookup: // query: S12A
Found: 1.88

Measured values drawn from the supplement of paper PMC10567573 for this set.
